- Tested on: L1210 leukemia ip in BDF1 mice, survival T/C
- Measurement Description: NCI In Vivo Anticancer Drug Screen. Data for tumor model L1210 Leukemia (intraperitoneal) in B6D2F1 (BDF1) mice
- Condition Parameters: endpoint: mean survival time; dose: 12.5 mg/kg/injection; schedule: Q01DX009 (ip); vehicle: saline; higher = longer survival
Toxic doses and inconclusive results are not listed.
Readout Label: T/C

Compound: CC(C)(C)C1CC[N-]CC1.CC(C)(C)C1CC[N-]CC1.[Cl][Pt+2]([Cl])([Cl])[Cl]
Result: 96 % of control

Compound: CCOC(=O)c1ccc(C(=O)OCC)nc1
Result: 109 % of control

Compound: C[N+](C)(C)CCOC(=O)c1cccc(CBr)c1CBr
Result: 97 % of control

Q: Look at this compound and give its reported T/C. CC(C)(c1ccccc1)[N+](C)(C)C
Result: 91 % of control

Q: Look at this compound and give its reported T/C. C[N+]1(C)CCCC1
Result: 102 % of control

Q: Look at this compound and give its reported T/C. CNC(C)CC1CCCCC1 (stereo not drawn)
Result: 96 % of control

Q: Look at this compound and give its reported T/C. CCCCNCC1COc2cccc(OCC)c2O1 (stereo not drawn)
Result: 105 % of control

Q: Look at this compound and give its reported T/C. CC1=NCCc2ccccc21
Result: 95 % of control

###

- Test system: L1210 leukemia ip in BDF1 mice, survival T/C
- Measurement Description: NCI In Vivo Anticancer Drug Screen. Data for tumor model L1210 Leukemia (intraperitoneal) in B6D2F1 (BDF1) mice
- Condition Parameters: endpoint: mean survival time; dose: 200.0 mg/kg/injection; schedule: Q04DX003 (ip); vehicle: saline with Tween-80; higher = longer survival
Toxic doses and inconclusive results are not listed.
Readout Label: T/C

Cpd Smiles: O=[N+]([O-])c1ccc(C[N+]23CCN(CC2)CC3)cc1
Result: 101 % of control
//
Cpd Smiles: ClCCOCCOc1ccccc1
Result: 100 % of control
//
Cpd Smiles: c1ccc(-c2nnc(-c3ccccn3)nc2-c2ccccc2)cc1
Result: 104 % of control
//
Cpd Smiles: N#CCCNc1ccccc1
Result: 108 % of control
//
Cpd Smiles: CCCCC(=O)Nc1cccc(OC(=O)NC)c1
Result: 95 % of control

Q: Look at this compound and give its reported T/C. CCOC(=O)C(O)(NC(=O)N/N=C/c1ccccc1)C(=O)OCC
Result: 104 % of control

###

- System: L1210 leukemia ip in BDF1 mice, survival T/C
- Measurement Description: NCI In Vivo Anticancer Drug Screen. Data for tumor model L1210 Leukemia (intraperitoneal) in B6D2F1 (BDF1) mice
- Condition Parameters: endpoint: mean survival time; dose: 12.5 mg/kg/injection; schedule: Q01DX009 (ip); vehicle: saline with Tween-80; higher = longer survival
Toxic doses and inconclusive results are not listed.
Readout Label: T/C

Recorded T/C, per entry:
Compound: CCN(CC)CCCC(C)Nc1cc(C)nc2ccc(N(C)C)cc12 (centres undefined)
T/C: 104 % of control
--
Compound: CCOC(=O)C(OCc1ccccc1)(C(=O)Cl)C(C)C (centres undefined)
T/C: 100 % of control
--
Compound: O=C1C(=C(C(F)(F)F)C(F)(F)F)C2CCC1C2 (centres undefined)
T/C: 93 % of control

# input for lookup
Q: Look at this compound and give its reported T/C. Cc1ccc(Cl)c2ccccc12
Result: 106 % of control

###

- Tested on: L1210 leukemia ip in BDF1 mice, survival T/C
- Measurement Description: NCI In Vivo Anticancer Drug Screen. Data for tumor model L1210 Leukemia (intraperitoneal) in B6D2F1 (BDF1) mice
- Condition Parameters: endpoint: mean survival time; dose: 100.0 mg/kg/injection; schedule: Q01DX009 (ip); vehicle: Klucel (hydroxypropylcellulose) (HPC); higher = longer survival
Toxic doses and inconclusive results are not listed.
Readout Label: T/C

Cpd Smiles: CCc1ccc(Nc2c([N+](=O)[O-])cc(C)cc2[N+](=O)[O-])cc1
Target Under Test: L1210 leukemia ip in BDF1 mice, survival T/C
Readout Label: T/C
Result: 97 % of control
//
Cpd Smiles: Cc1ccc(CNC(=O)Nc2cccc(Cl)c2)cc1C
Target Under Test: L1210 leukemia ip in BDF1 mice, survival T/C
Readout Label: T/C
Result: 97 % of control
//
Cpd Smiles: Cc1c(Cl)c(Cl)c(C)c(Cl)c1Cl
Target Under Test: L1210 leukemia ip in BDF1 mice, survival T/C
Readout Label: T/C
Result: 86 % of control
//
Cpd Smiles: CCOC(=O)CCCN(c1sc(C)c(C)c1C(=O)OCC)S(=O)(=O)c1ccc(C)cc1
Target Under Test: L1210 leukemia ip in BDF1 mice, survival T/C
Readout Label: T/C
Result: 105 % of control
//
Cpd Smiles: CCCCCCCCCC(=O)N/N=C/c1ccco1
Target Under Test: L1210 leukemia ip in BDF1 mice, survival T/C
Readout Label: T/C
Result: 87 % of control

Q: # query: T/C | item COC(=O)c1ccccc1NC(=O)Nc1ccccc1 | system: L1210 leukemia ip in BDF1 mice, survival T/C
Result: 108 % of control

Q: # query: T/C | item CC(=O)N(C)c1ccc(NC(=O)CCl)cc1 | system: L1210 leukemia ip in BDF1 mice, survival T/C
Result: 109 % of control

Q: # query: T/C | item CCOC(=O)NS(=O)(=O)c1ccccc1 | system: L1210 leukemia ip in BDF1 mice, survival T/C
Result: 100 % of control

Q: # query: T/C | item Cn1c(=O)c2ccc[n+]([O-])c2n(C)c1=O | system: L1210 leukemia ip in BDF1 mice, survival T/C
Result: 101 % of control

Q: # query: T/C | item Cc1c(C)c(C)c(CNNC(=S)Nc2cccc(Cl)c2)c(C)c1C | system: L1210 leukemia ip in BDF1 mice, survival T/C
Result: 95 % of control

Q: # query: T/C | item CSc1ccc(C)cc1C | system: L1210 leukemia ip in BDF1 mice, survival T/C
Result: 105 % of control

Q: # query: T/C | item O=C(Nc1cccc(C(F)(F)F)c1)Nc1cccc2ccc(O)cc12 | system: L1210 leukemia ip in BDF1 mice, survival T/C
Result: 107 % of control

Q: # query: T/C | item CC1=Nc2ccccc2/C1=C\c1c(C)[nH]c2ccccc12 | system: L1210 leukemia ip in BDF1 mice, survival T/C
Result: 97 % of control

###

- Test system: L1210 leukemia ip in BDF1 mice, survival T/C
- Measurement Description: NCI In Vivo Anticancer Drug Screen. Data for tumor model L1210 Leukemia (intraperitoneal) in B6D2F1 (BDF1) mice
- Condition Parameters: endpoint: mean survival time; dose: 25.0 mg/kg/injection; schedule: Q01DX009 (ip); vehicle: saline; higher = longer survival
- Procedure: The antitumor activity of compounds was measured in mice bearing transplantable tumors. Survival or tumor size were measured and the results are expressed as the measurement made in the treated group (T) divided by the measurement made in the vehicle treated control group (C). The tumor model used in this assay is L1210 Leukemia (intraperitoneal) in B6D2F1 (BDF1) mice
Toxic doses and inconclusive results are not listed.
Readout Label: T/C

Recorded T/C, per entry:
Molecule: CNC(C)CC1CCCCC1 (centres undefined)
T/C: 97 % of control
--
Molecule: CCCCCCCNC(C)=O
T/C: 106 % of control
--
Molecule: Cc1cccc(Nc2c(N)nc(N)nc2N)c1
T/C: 105 % of control
--
Molecule: CCCN(CCC)CCCOC(=O)c1ccc(N)cc1
T/C: 99 % of control
--
Molecule: O=C(O)/C=C\c1c[nH]c2nccnc12
T/C: 101 % of control
--
Molecule: CC(C)(C)C1CC[N-]CC1.CC(C)(C)C1CC[N-]CC1.[Cl][Pt+2]([Cl])([Cl])[Cl]
T/C: 92 % of control
--
Molecule: CNc1n[n+](-c2ccccc2)no1
T/C: 93 % of control
--
Molecule: C[N+]1(C)CCCC1
T/C: 109 % of control
--
Molecule: C=C(Cl)C[N+]12CN3CN(CN(C3)C1)C2
T/C: 101 % of control
--
Molecule: CC/C(=N\N=C(N)N)c1ccc(NC(N)=S)cc1
T/C: 107 % of control

Q: Look at this molecule and give its reported T/C. CCOC(=O)c1ccc(C(=O)OCC)nc1
Result: 94 % of control

Q: Look at this molecule and give its reported T/C. C=CC[n+]1ccc2ccccc2c1
Result: 108 % of control

Q: Look at this molecule and give its reported T/C. O=S(=O)(CC12CC1(O)C1CCC2C1)c1ccccc1 (centres undefined)
Result: 104 % of control

Q: Look at this molecule and give its reported T/C. O=c1[nH]cc(F)c(=O)n1C1OC(CO)C(O)C1O (centres undefined)
Result: 118 % of control
